B1: tRNA (parent)
chain: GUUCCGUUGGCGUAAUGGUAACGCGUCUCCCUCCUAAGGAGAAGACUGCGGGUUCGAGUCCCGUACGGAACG

Variants of: B1
Method Notes: yeast fitness relative to wild type (ratio to wild type); higher = fitter; tRNA-Arg(CCU), competitive growth, 37 C, YPD
Variants at the floor of the assay were thinned out.
Here, each record is paired with measured yeast fitness data.

{"Monomer Sequence": "GUUCCGUUGCCGUAAAGGUAACGCGUCUCCCUCCUAAGGAGAAGACUGCGGGUUCGAGUCCCGUGCGGAACG", "Qualifier Sign": "≤", "yeast fitness": 0.5}
{"Monomer Sequence": "GUUCCGUGGGCGUAAUGGUAACGAGUCUCGCUCCUAAGGGGAAGACUGCGGGUUCGAGUCCCGUACGGAACG", "Qualifier Sign": "=", "yeast fitness": 0.559}
{"Monomer Sequence": "GUUCCGUUGGCGUAAUGGUAACGCGUCUACCUCCUAAGGAGAAGAAUGCGGGUUAGGGUCCCGUACGGAACG", "Qualifier Sign": "≤", "yeast fitness": 0.5}
{"Monomer Sequence": "GUUCCGUUGGCGUAAUGGUAACGCGUAUCCCUCCUAAUGAGAAGGCUCCGGGUUCGAGUCCCGUACGGAACG", "Qualifier Sign": "≤", "yeast fitness": 0.5}
{"Monomer Sequence": "GUUCCGUUGGCGUAAUGGUAACGCGUCCCCCUCCUAAGGAGAAGACUGCGCGUUCGAGUCCCGUCCGGAACG", "Qualifier Sign": "≤", "yeast fitness": 0.5}
{"Monomer Sequence": "GUUCCGUUGGCGUAAUGGUAAUGCGUCUCCCUUCUAAGGAGAAGACUGCGAGUUCGAGUCCCGUACGGAACG", "Qualifier Sign": "≤", "yeast fitness": 0.5}
{"Monomer Sequence": "GUUCCGUUGGCGUAACGGUAACGUGUCUCCCUCCUAAGGAGAAGACUGCGGGCUCGAGUGCCGUACGGAACG", "Qualifier Sign": "=", "yeast fitness": 0.559}
{"Monomer Sequence": "GUUCGGUUGGCGUAAUGGUAACGCGUCUCGCUCCUAAGGAGAAGACUGCGGGUUCGAGUCCCGUAAGGAACG", "Qualifier Sign": "≤", "yeast fitness": 0.5}
{"Monomer Sequence": "GCUCCGUUGGCGUAAUGGUAACGCGUCUCCCUCCUAAGGAGAAGACUGCGGGUUCGAGUCCCGGAAGGAACG", "Qualifier Sign": "≤", "yeast fitness": 0.5}
{"Monomer Sequence": "GUUCCGUUGGCGUAAUGGUAACGCCUCUCCCUCCUAAGGAGAAGACUGUGGGUUCGAGUCCCAUACGGAACG", "Qualifier Sign": "=", "yeast fitness": 0.83}
{"Monomer Sequence": "GUUCUGUUGGCGUAAUGGUAACGCGUCCCCCUCCUAAGGAGAAGACUGCGGGUUCGAGUCUCGUACGGAACG", "Qualifier Sign": "=", "yeast fitness": 0.705}
{"Monomer Sequence": "GUUCCGUUGGCGUAAUGGUAACGCGUCUCCCUCCUAAGGAGAAGACUGCGAGUUCGAGUCCCGCACCGGACG", "Qualifier Sign": "=", "yeast fitness": 0.854}
{"Monomer Sequence": "GUUACGCUGGCGUAAUGGUAACGGGUCUCCCUCCUAAGGAGAAGACUGCGGGUUCGAGUCACGUAUGGAACG", "Qualifier Sign": "≤", "yeast fitness": 0.5}
{"Monomer Sequence": "GUUUCGUUGGCGUAAUGGUGACGCGUCUCCCUCCUAAGGAGAAGUCUGCGGGUUCGAGUCAUGUACGGAACG", "Qualifier Sign": "=", "yeast fitness": 0.546}
{"Monomer Sequence": "GUUCCGUUGGCGUAACGGUAACGCGUCUCCCUCCUACGGAGAAGACUGCGGGUUCGAGUCCCGUACGGAACG", "Qualifier Sign": "=", "yeast fitness": 0.678}
{"Monomer Sequence": "GUUCCGUUGGCGUAAUGGUGACGCGUCUCCCUCCUAAGGAGAAGACUGCGGGCUCGAGUCCCGUACGGAACG", "Qualifier Sign": "=", "yeast fitness": 0.682}
{"Monomer Sequence": "GUUCCGUUGGCGUAAUGGUAACGCGUCUCCCUCUUAAGGGGAAGAAUGGGGGUUCGAGUCCCGUGCGGAACG", "Qualifier Sign": "≤", "yeast fitness": 0.5}
{"Monomer Sequence": "GUUCGGUUGGCGUGAUGGUAACGCGUCUCCCUCCUUAGGAGAAGACUGCGGGUUCGAGUCCCGUACAGAACG", "Qualifier Sign": "≤", "yeast fitness": 0.5}
{"Monomer Sequence": "GGUCCGUUGGCGUAAUGGUAACGCGUCUCCCUCCUAAGGAGAAGACUGCGGGUUCGAGUCCCAUACGGAACG", "Qualifier Sign": "=", "yeast fitness": 0.876}
{"Monomer Sequence": "GUUCCGUUGGCGUAAUGGUAACGCGUCUCCCUCCUAACGAGAAGACUGCGGGUUCGAGUCCCGUACGGAGCG", "Qualifier Sign": "=", "yeast fitness": 0.756}
{"Monomer Sequence": "GUUCCGUUGGCGUAAUGGUAACGUGUCUCCCUCCUUAGGAGAAGACUGGGGGUUCGAGUCCCGUACGGAACG", "Qualifier Sign": "=", "yeast fitness": 0.544}
{"Monomer Sequence": "GUUCGGUUGGCGUACUGGUAACGCGUCUCCCUCCUAAGGAGAAGACUGCGGGUUCGAGUCCCGUACGGAACG", "Qualifier Sign": "=", "yeast fitness": 0.626}
{"Monomer Sequence": "GUUCCGUUGGCGUAAUCCUAACGCGUCUCCGUCCUAAGGAGGAGACUGCGGGUUCGAGUCCCGUACGGAACG", "Qualifier Sign": "≤", "yeast fitness": 0.5}
{"Monomer Sequence": "GUUCCGUUGGCGUAAUGGUAACGCGUCUCCCUUCUAAGCAGAAGACUGCGGGUUCGAGUCCCGUACGGAACG", "Qualifier Sign": "=", "yeast fitness": 0.622}
{"Monomer Sequence": "GUUCCAUUGGCGUAAUGGUAACGCGUCUCCCUCCUAAGGAGAAGACUGCAGGUUCGAGUCCCGUAAGGAACG", "Qualifier Sign": "≤", "yeast fitness": 0.5}
{"Monomer Sequence": "GUUCCGUUGGCGUACUGGUAACGCGUCUCCCUCCUAUGGAGAAGACUGCGGGUUCGAGUCCCGUACGGAACG", "Qualifier Sign": "=", "yeast fitness": 0.624}
{"Monomer Sequence": "GUUCCGUUCGCGUAAUGGUAACGCGUCUCCCUCCUAAGGAGAAGACUGCGGGUUCGAGUCCCAUAUGGAACG", "Qualifier Sign": "≤", "yeast fitness": 0.5}
{"Monomer Sequence": "GUUCCGUUGGCAUAAUGGUAACGCGUCUCUCUCCUAAGGAGAAGAGUGCGGGUUCGAGUCCCGUACGGAACG", "Qualifier Sign": "≤", "yeast fitness": 0.5}
{"Monomer Sequence": "GUUCCGUUGGGGUAAUGGUAACGCGUCUCCCUCGUGAGGAGAAGACUCCGGGUUCGAGUCCCGUACGGAACG", "Qualifier Sign": "≤", "yeast fitness": 0.5}
{"Monomer Sequence": "GUUCCGUUGGCGUAAUAGUAACGCGUCUCCCUCCUAAGGAGAAGACUGCGGGUUCGAGUCCCGCACGGAACG", "Qualifier Sign": "=", "yeast fitness": 0.878}
{"Monomer Sequence": "GUUCCGUUGGCGUAAUGGUAACGCGUCUCCCUCCUACGGAGAAGACUGGGGGUUCGAGUCCCGUACGGACCG", "Qualifier Sign": "≤", "yeast fitness": 0.5}
{"Monomer Sequence": "GUUCUGUUGGCGUAAUGGUAACGCGUCUCCCUCCUAAGGAAAAGACUGCGGCUUCGAGUCCCGUACGGAACG", "Qualifier Sign": "≤", "yeast fitness": 0.5}
{"Monomer Sequence": "GUUCCGUUGGCGUAAUGGUACCGCGUCUCCCCCAUAAGGAGAAGACUGCGGGUUCGAGUCCCGUACGGAACG", "Qualifier Sign": "≤", "yeast fitness": 0.5}
{"Monomer Sequence": "GUUCCGUUGGCGUAAUGGUAACGCGUCUCCCUCCUACGGAGAAGAUUGCGGGUUCGAGUCCCGUCCGGAACG", "Qualifier Sign": "=", "yeast fitness": 0.638}
{"Monomer Sequence": "GUUCCGUUGGCGUAGUGGUAACGCCUCUCCCUCCUAAGGAGAAGACUACGGGUUCGAGUCCCGUACGGAACG", "Qualifier Sign": "=", "yeast fitness": 0.637}
{"Monomer Sequence": "GUUCCGUUGGCGUAAUGGUAACGCGUCUCCCUCCUAAGGAGAAGCCUGCGGGUUCGAGUCCCGCCCGGAACG", "Qualifier Sign": "=", "yeast fitness": 0.965}
{"Monomer Sequence": "GUUCCGUUGGCGUAAUGGUAACCCGUCUCCCUACUAAGGAGAAGACUGCCGGUUCGACUCCCGUACGGAACG", "Qualifier Sign": "≤", "yeast fitness": 0.5}
{"Monomer Sequence": "GAUCAGUUGGCGUAAUGGUAACGCGUCUCCCUCCUAAGGAGAAGACUGCGGGUUCGAGUCCCGGAUGGAACG", "Qualifier Sign": "≤", "yeast fitness": 0.5}
{"Monomer Sequence": "GUUCCGUUGGCGUAAUGGUAACGCGUCUCACUCCUAAGGAGAAGACUGCGGGCUCGAGUCCCGUACGGAACG", "Qualifier Sign": "=", "yeast fitness": 0.82}
{"Monomer Sequence": "GUUACGUUGGCGUAAUGGUAACGCGUCUCCAUGCUAAGGAGAAGACAGCGGGUUCGAGUCCCGUACGGAACG", "Qualifier Sign": "≤", "yeast fitness": 0.5}
{"Monomer Sequence": "GUUCCGUUGGCGUCAUGGUAACGCGUCUCCCUCCUAGGGAGAAGCCUGCGGGUUCGAGUCCCGUACGGAACG", "Qualifier Sign": "≤", "yeast fitness": 0.5}
{"Monomer Sequence": "GUUCUGAUGGCGUAAUGGUAACGCGUCUCCCUCCUAAGGAGAAGACUGCGGGUUCGAGUCCCGUCCGGAACG", "Qualifier Sign": "=", "yeast fitness": 0.64}
{"Monomer Sequence": "GUUCAGUUGGCGUAAUGGUUACACGUCUCCCUCCUAAGGAGAAGACUGCGGGUUCGAGUCCCGUAUGGAACG", "Qualifier Sign": "≤", "yeast fitness": 0.5}
{"Monomer Sequence": "GUUCCGUUGGUGUAAUGGUAACGCGUCUUCCUCCUAAGAAGAAGACUGCGGGUUCGAGUCCCGUACGGAACG", "Qualifier Sign": "=", "yeast fitness": 0.619}
{"Monomer Sequence": "GUUCCGUUGGCGUAAUGGUAACGCGUCUCCGUGCUAAGGAGAAGACUGCGGGUUCGAGUCCCAUACGGAACG", "Qualifier Sign": "≤", "yeast fitness": 0.5}
{"Monomer Sequence": "GUUCCGUUGGAGUAAUGGUAACGCGUGUCCCUCAUAAGGAGCAGACUGCGGGUCCGAGUACGGUACGGAUCG", "Qualifier Sign": "=", "yeast fitness": 0.624}
